Molecular target: human Npt2a (Homo sapiens, UniProt Q06495)
Construct: expressed in transfected cells
Sequence (Q06495 1-639): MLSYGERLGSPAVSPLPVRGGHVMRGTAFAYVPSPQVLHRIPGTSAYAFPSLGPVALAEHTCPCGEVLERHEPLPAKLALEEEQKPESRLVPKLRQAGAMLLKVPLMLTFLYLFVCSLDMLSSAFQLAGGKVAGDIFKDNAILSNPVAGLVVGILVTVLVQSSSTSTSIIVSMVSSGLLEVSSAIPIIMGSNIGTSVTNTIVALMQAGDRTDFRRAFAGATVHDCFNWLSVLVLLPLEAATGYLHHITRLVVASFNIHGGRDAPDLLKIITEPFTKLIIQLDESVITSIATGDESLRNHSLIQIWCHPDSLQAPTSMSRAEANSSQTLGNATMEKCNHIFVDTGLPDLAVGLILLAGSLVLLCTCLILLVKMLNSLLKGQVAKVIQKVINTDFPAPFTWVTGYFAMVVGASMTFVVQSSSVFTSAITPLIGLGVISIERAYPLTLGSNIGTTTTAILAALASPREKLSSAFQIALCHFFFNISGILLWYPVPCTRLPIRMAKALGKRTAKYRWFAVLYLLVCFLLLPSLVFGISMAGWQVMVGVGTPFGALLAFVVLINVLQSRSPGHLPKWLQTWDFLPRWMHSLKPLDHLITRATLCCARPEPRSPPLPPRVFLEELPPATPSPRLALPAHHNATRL
Experiment: Npt2a activity cell based assay, membrane potential dye, CHO T-REx hNpt2a cells
Details: doxycycline-induced, depolarization by sodium phosphate influx, average or median values if tested more than once
Parameter pIC50: see the listing below.
pIC50 is defined as minus the log10 of a concentration measured in mol/L.

Before answering, review these 8 worked examples.
>  <compound>
Cc1nn(-c2cc(Nc3c(C)c(-c4ccc(C#N)cc4)nn3CC3CC3)ncn2)c2c1C(=O)CC2

>  <target>
human Npt2a (Homo sapiens, UniProt Q06495)

>  <test_result>
7.21

$$$$
>  <compound>
Cc1nn(-c2cc(Nc3c(Cl)c(-c4ccc(F)cc4F)nn3C)ncn2)c(C)c1Cl

>  <target>
human Npt2a (Homo sapiens, UniProt Q06495)

>  <test_result>
6.51

$$$$
>  <compound>
CCOC(=O)c1c(C)nn(-c2cc(Nc3c(CC)c(-c4ccc(F)cc4)nn3CC(F)F)ncn2)c1C

>  <target>
human Npt2a (Homo sapiens, UniProt Q06495)

>  <test_result>
7.33

$$$$
>  <compound>
Cc1cc(C(F)F)n(-c2cc(Nc3nn(C)c(-c4ccc(C(F)(F)F)nc4)c3C)ncn2)n1

>  <target>
human Npt2a (Homo sapiens, UniProt Q06495)

>  <test_result>
7.82

$$$$
>  <compound>
Cc1nn(-c2cc(Nc3c(C)c(-c4ccc(C(F)F)nc4)nn3C)ncn2)c(C)c1C(F)(F)F

>  <target>
human Npt2a (Homo sapiens, UniProt Q06495)

>  <test_result>
6.80

$$$$
>  <compound>
CCc1c(Nc2cc(-n3nc(C)c(C(=O)N4CCCC4C)c3C)ncn2)nn(C)c1-c1ccc(F)cc1 (racemic) [Example 76]

>  <target>
human Npt2a (Homo sapiens, UniProt Q06495)

>  <test_result>
6.72

$$$$
>  <compound>
Cc1c(-c2ccc(F)cc2)nn(CC2CC2)c1Nc1cc(-n2cc3c(n2)CN(C(=O)OC(C)(C)C)C3)ncn1

>  <target>
human Npt2a (Homo sapiens, UniProt Q06495)

>  <test_result>
5.82

$$$$
>  <compound>
CCOC(=O)c1c(C)nn(-c2cc(Nc3c(C)c(-c4ccc(C(F)F)cc4)nn3CCOC)ncn2)c1C

>  <target>
human Npt2a (Homo sapiens, UniProt Q06495)

>  <test_result>
7.85

$$$$

# next compound below
Reported pIC50, compound "Cc1cc(C)n(-c2cc(Nc3nn(C)c(-c4ccc(F)cc4F)c3Cl)ncn2)n1" : ____
6.88
